# Tested on: IST-MEL1 (Melanoma)
# protocolDescription: combination Emax (second highest fraction inhibited in the dose matrix, 72 h); higher = more inhibition; extreme values may be limits of the assay
measurementType: combination Emax

Reported combination Emax for CN(CCO)CC[C@H](CSc1ccccc1)Nc1ccc(S(=O)(=O)NC(=O)c2ccc(N3CCC([C@@H](O)c4ccccc4-c4ccc(Cl)cc4)CC3)cc2)cc1S(=O)(=O)C(F)(F)F [AZD4320] + C[C@@H](Nc1cc(F)cc(F)c1)c1cc(C(=O)N(C)C)cc2c(=O)cc(N3CCOCC3)oc12 [AZD8186] (first compound max 1 µM, 7x7, partner max 3 µM) was 0.405
